- System: HIV-IIIb (MT-4 cells)
- EXPERIMENT_NOTES: Test A: Antiviral Assays in MT4 Cells
- Type: cell-based
- CONDITION: Human immunodeficiency virus 1, IIIB, MT4, 120 h, MT-4 cells infected with HIV-IIIb (0.004 m.o.i.), 5 days incubation, CellTiter-Glo readout; read-out: EC50
MEASURED_METRIC: EC50

Lookup: Fill in EC50 for record Cc1cc2ncsc2c(-c2ccc3c4c(ccnc24)CCO3)c1[C@H](OC(C)(C)C)C(=O)O (atropisomer, axis not shown)
Found: 655 nM

Lookup: Fill in EC50 for record Cc1cc2nc(N(C)Cc3ccccc3)sc2c(-c2ccc3c4c(ccnc24)CCO3)c1[C@H](OC(C)(C)C)C(=O)O
Found: 351 nM
